Readings of total protein half-life in vivo for the listed sequences
- PROCEDURE_TEXT: total protein half-life in vivo (active degradation + dilution); higher = more stable protein
- MEASUREMENT_CONDITIONS: wild type E. coli NCM3722; growth: N-lim chemostat; doubling time 12 h
// return the numeric value with its unit appended

MKKIAAISLISIFIMSGCAVHNDETSIGKFGLAYKSNIQRKLDNQYYTEAEASLARGRISGAENIVKNDATHFCVTQGKKMQIVELKTEGVGLHGVARLTFKCGE
13.1 h

Kindly note the recorded total protein half-life in vivo for MQDSILTTVVKDIDGEVTTLEKFAGNVLLIVNVASKCGLTPQYEQLENIQKAWVDRGFMVLGFPCNQFLEQEPGSDEEIKTYCTTTWGVTFPMFSKIEVNGEGRHPLYQKLIAAAPTAVAPEESGFYARMVSKGRAPLYPDDILWNFEKFLVGRDGKVIQRFSPDMTPEDPIVMESIKLALAK , which is 6.05 h

Kindly note the recorded total protein half-life in vivo for MRKLTALFVASTLALGAANLAHAADTTTAAPADAKPMMHHKGKFGPHQDMMFKDLNLTDAQKQQIREIMKGQRDQMKRPPLEERRAMHDIIASDTFDKVKAEAQIAKMEEQRKANMLAHMETQNKIYNILTPEQKKQFNANFEKRLTERPAAKGKMPATAE , which is 1.93 h

Kindly note the recorded total protein half-life in vivo for MRNKPFYLLCAFLWLAVSHALAADSTITIRGYVRDNGCSVAAESTNFTVDLMENAAKQFNNIGATTPVVPFRILLSPCGNAVSAVKVGFTGVADSHNANLLALENTVSAASGLGIQLLNEQQNQIPLNAPSSALSWTTLTPGKPNTLNFYARLMATQVPVTAGHINATATFTLEYQ , which is 13.4 h
